experiment: Solubility in normal saline and phosphate buffered saline (saturated solutions, 25° C., 7 days, HPLC); format: physicochemical; conditions: normal saline, saline or isotonic, thermodynamic from solid; Saline, 25° C., 7 days
Value type: solubility at 7 days (mM)
Numbers only, in mM.

Molecule	Unit of measurement	solubility at 7 days
CCCCc1nc2c(N)nc3ccccc3c2n1CCCCNC(=O)CCOCCOCCOCCOCCOCCOCCOCCOCCOCCOCCOCCOCCOCCOCCOCCOCCOCCOCCOCCOCCOCCOCCOCCOCCOCCOCCOCCOCCOCCOCCOCCOCCOCCOCCOCCOCCOCCOCCOCCOCCOCCOCCOCCOCCOCCOC	mM	5.97

Okay, next one:
Report solubility at 7 days for CCCCc1nc2c(N)nc3ccccc3c2n1CCCCNC(C)=O [IRM 2, reference compound] please.
0.04
